Consider the following binders and their measured Emax (MFI) readings.
Molecular target: T1, cell surface human mesothelin (MSLN) (human, UniProt Q13421 296-598)
T1 construct: whole, on cells; also called cell surface MSLN
T1 sequence (Q13421 other isoform, or with tags, fused parts or gaps limits assumed): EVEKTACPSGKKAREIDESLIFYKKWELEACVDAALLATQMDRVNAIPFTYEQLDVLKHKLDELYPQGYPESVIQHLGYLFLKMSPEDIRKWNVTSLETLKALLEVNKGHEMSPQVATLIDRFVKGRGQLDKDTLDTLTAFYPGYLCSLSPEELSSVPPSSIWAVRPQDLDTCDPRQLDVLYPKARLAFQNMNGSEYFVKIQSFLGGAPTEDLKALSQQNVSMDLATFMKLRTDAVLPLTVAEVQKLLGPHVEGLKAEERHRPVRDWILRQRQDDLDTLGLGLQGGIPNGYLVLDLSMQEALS
Assay: flow cytometry, NCI-H226 cells + 20 nM soluble MSLN
Numbers only; they are read as MFI.

Examples from the recorded data:
| binder | quantity | value_observed |
| --- | --- | --- |
| FS22-053-008-AA/FS28-024-053 mAb^2 (bispecific antibody, human IgG1, kappa, L234A L235A, V domains shown, also called FS28-024-53) VH: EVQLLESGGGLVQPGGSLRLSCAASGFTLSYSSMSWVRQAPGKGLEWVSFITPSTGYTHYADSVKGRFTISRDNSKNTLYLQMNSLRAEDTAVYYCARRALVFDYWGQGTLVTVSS VL: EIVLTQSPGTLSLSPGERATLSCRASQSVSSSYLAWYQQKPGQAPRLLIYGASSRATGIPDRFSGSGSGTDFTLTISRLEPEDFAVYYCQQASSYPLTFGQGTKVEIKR | Emax (MFI) | 965000 |
| FS22-053-008-AA/FS28-024 mAb^2 (bispecific antibody, human IgG1, kappa, L234A L235A, V domains shown, also called FS28-024 (in FS22-053-008-AA mAb^2 format); FS28-024 (in CD137 mAb2 format)) VH: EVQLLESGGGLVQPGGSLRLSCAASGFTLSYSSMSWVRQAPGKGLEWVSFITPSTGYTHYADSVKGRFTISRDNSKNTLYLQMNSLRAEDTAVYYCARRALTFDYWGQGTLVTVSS VL: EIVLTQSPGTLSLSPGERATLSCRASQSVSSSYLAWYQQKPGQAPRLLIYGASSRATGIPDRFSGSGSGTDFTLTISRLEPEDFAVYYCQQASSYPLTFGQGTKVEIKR | Emax (MFI) | 1.02e+06 |

With those in mind, consider the next binder.
[Q] Emax (MFI) lookup needed for FS22-053-008-AA/FS28-256-026 mAb^2 (bispecific antibody, human IgG1, kappa, L234A L235A, V domains shown) VH: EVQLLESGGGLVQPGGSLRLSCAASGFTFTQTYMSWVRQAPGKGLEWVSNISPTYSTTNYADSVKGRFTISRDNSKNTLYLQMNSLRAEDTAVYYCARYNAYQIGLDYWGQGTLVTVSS VL: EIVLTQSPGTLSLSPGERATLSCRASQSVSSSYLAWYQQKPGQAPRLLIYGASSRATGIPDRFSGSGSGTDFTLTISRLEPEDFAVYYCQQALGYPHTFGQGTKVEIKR , thanks.
[A] 715000
